// merged dataset of pKi values, system = D(1B) dopamine receptor (Homo sapiens), multiple refs
Sequence (P21918 whole entry): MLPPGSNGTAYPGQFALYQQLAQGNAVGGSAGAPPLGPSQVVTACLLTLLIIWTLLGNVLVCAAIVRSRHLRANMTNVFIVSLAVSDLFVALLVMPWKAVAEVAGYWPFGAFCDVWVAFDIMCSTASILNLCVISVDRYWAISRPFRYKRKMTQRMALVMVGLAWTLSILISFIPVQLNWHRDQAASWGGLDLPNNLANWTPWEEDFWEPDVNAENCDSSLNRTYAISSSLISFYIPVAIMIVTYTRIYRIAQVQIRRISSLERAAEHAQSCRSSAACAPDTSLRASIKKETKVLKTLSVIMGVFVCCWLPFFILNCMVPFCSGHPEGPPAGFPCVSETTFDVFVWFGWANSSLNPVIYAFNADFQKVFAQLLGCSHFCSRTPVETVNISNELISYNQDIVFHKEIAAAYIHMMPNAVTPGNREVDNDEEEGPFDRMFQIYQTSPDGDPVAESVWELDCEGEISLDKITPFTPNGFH
pKi: −log10 of the molar value.
Quantity kind: pKi

1) CN1CCc2cc(Cl)c(O)cc2[C@H]2c3cccc(-c4cccc([N+](=O)[O-])c4)c3CC[C@@H]21 = 8.33
2) CN1CCc2cc(Cl)c(O)cc2[C@H]2c3cccc(-c4cccs4)c3CC[C@@H]21 = 8.72
3) COc1ccc2c(c1)CCN1Cc3ccccc3CC21 (configuration not stated) = 6.73
4) CN(CCCC12CCC(c3ccccc31)c1ccccc12)Cc1ccc(OCCCN2CCCCC2)cc1 = 6.58
5) Cc1cccc(C)c1C(=O)NN1c2ccc(Cl)cc2N=C(N2CCN(C)CC2)c2ccccc21 = 7.51
6) C=CCN1CCc2cc(OC)c(O)cc2C(c2c(Cl)cccc2Cl)C1 (configuration not stated) = 6.32
7) COc1ccc2c(c1)CCN(C)CCc1c([nH]c3ccccc13)C2 = 7.50
8) CN1CCc2cc(Cl)c(O)cc2[C@H]2c3cccc(-c4cccc(C#N)c4)c3CC[C@@H]21 = 8.47
9) CN1CCN(C2=Nc3cc(Cl)ccc3N(NC(=O)c3ccccc3Cl)c3ccccc32)CC1 = 7.14
10) COc1cccc(OC)c1C(=O)NN1c2ccc(Cl)cc2N=C(N2CCN(C)CC2)c2ccccc21 = 7.42
11) COc1ccc(-c2ccccc2)c(CNC(=O)NCCCN2CCN(c3ccccc3OC)CC2)c1 = 5.52
12) CC(C)(C)C#Cc1ccc2c(c1)C=C([N+](=O)[O-])C(C(F)(F)F)O2 (configuration not stated) = 5.68
13) CN1CCc2cc(Cl)c(O)cc2[C@H]2c3ccc(NS(C)(=O)=O)cc3CC[C@@H]21 = 8.24
14) COc1ccc(-c2cccc3c2CC[C@H]2[C@H]3c3cc(O)c(Cl)cc3CCN2C)cc1 = 8.21
15) CN1CCc2cc(Cl)c(O)cc2[C@H]2c3cccc(/C=N/OCc4ccccc4)c3CC[C@@H]21 = 8.60
16) O=C1CCc2ccc(OCCCCN3CCN(c4ccc(O)c5c4OCCO5)CC3)cc2N1 = 4.80
17) CN1CCc2ccccc2Cc2[nH]c3ccccc3c2C[C@@H]1CO = 7.94
18) C=CCN1CCc2cc(OC)c(O)cc2C(c2ccccc2Cl)C1 (configuration not stated) = 6.58
19) CN1CCc2ccccc2Cc2[nH]c3ccccc3c2C[C@H]1CO = 7.04
20) COc1ccc2c(c1)CCN(C)CCCc1ccccc1C2 = 8.34
21) Oc1ccc(N2CCN(CCCCOc3ccn4nccc4c3)CC2)c2cccnc12 = 5.24
22) CN1CCc2cc(Cl)c(O)cc2[C@H]2c3cccc(Br)c3CC[C@@H]21 = 8.12
23) C=CCN1CCc2cc(O)c(O)cc2C(c2ccccc2Br)C1 (configuration not stated) = 6.35
24) COc1cc2c(cc1OC)CN(Cc1ccccc1CNC(=O)c1ccc(C#N)cc1)CC2 = 6.47
25) CCCN(CCNC(=O)/C=C/c1ccc(F)cc1)C1Cc2ccccc2C1 = 4.96
26) COc1cc2c(cc1O)C(c1ccccc1)CNCC2 (configuration not stated) = 6.51
27) O=C(O)c1ccc(C#Cc2ccc3c(c2)C=C([N+](=O)[O-])C(C(F)(F)F)O3)cc1 (configuration not stated) = 5.68
